test: protein stability index of a GFP-peptide fusion (GPS, HEK-293T) (PSI 1-6); higher = more stable; details: treatment: DMSO; c terminus: a fixed tail appended;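 note: 24-mer peptide tiles fused after GFP, lentivirally expressed, FACS-sorted into six equal bins by GFP/DsRed ratio, decoded by Illumina sequencing, PSI is the read-weighted mean bin number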
Label 0.0 if protein stability index falls below 3; label 1.0 in every other case.

A selection of reference data follows.
Enquiry: Is protein stability index at least 3? Consider PDPPVNFLRQKVLSLPLPDPLKYY [PCMTD2]
Return: 0.0

Enquiry: Is protein stability index at least 3? Consider VYSNTIQSIIAIIRAMGRLKIDFG [GNAI1]
Return: 0.0

Enquiry: Is protein stability index at least 3? Consider DENLFTGEDLDELEEELNTLDLEE [ZC3H15]
Return: 1.0

---
Enquiry: Is protein stability index at least 3? Consider NSLDTTSWAWRGPGVLKVLWLTAS [LPCAT4]
Return: 0.0

Enquiry: Is protein stability index at least 3? Consider LLKITIPNAFIGSDVVDWLYHNVE [DVL3]
Return: 0.0

Enquiry: Is protein stability index at least 3? Consider NKKYYKKFSIPDLDRHQLPLDDAL [DPCD]
Return: 1.0

Enquiry: Is protein stability index at least 3? Consider NSCINPIALYFVSKKFKNCFQSCL [EDNRA]
Return: 1.0

Enquiry: Is protein stability index at least 3? Consider IIKQLKDVFERDWYSPYAKTLQPT [PLD5]
Return: 0.0

Enquiry: Is protein stability index at least 3? Consider RTMDIPRSVQNFRFFASSSLHHTS [ALDH8A1]
Return: 0.0

Enquiry: Is protein stability index at least 3? Consider FDSSRQRAEGTDIPTVKPLKPRPE [ZC2HC1A]
Return: 1.0

Measured values drawn from the supplement of paper PMC10567573 for this set.
